Values from the supplement of paper PMC9170038

system: MS2 coat protein; test: apparent KD of MS2 coat protein; designed switch direction (-1 OFF switch, 1 ON switch): -1; higher = weaker reporter binding; settings: input ligand: FMN 200 uM
Attribute: apparent KD of MS2 coat protein
The reply should contain only the number, in µM.

These solved cases illustrate the format of a correct answer.
>>> observed_result("CUUUUGUGAGGAUAUUCAUAGUAGGGUCAUGGCAUUAUUAUGAAGAAGGCACAUGAGGAUCACCCAUGUACCUU [EX4 #49] (Eterna round: R97, puzzle: Exclusion 4)")
0.0328
>>> observed_result("ACUCCUCCUGUUAGGAUAUGCAUCGGGCUUCCGCAGCAGAAGGAACAUGAGGAUCACCCAUGUCAAAUAAAAUC [Inxebexe] (Eterna round: R96, puzzle: Brourd's mod of Exclusion 4)")
0.153

Check MS2 coat protein data and give apparent KD of MS2 coat protein for ACGAGCAGACGGAGAUCCAACAUGAGGAUCACCCAUGUCUGGAAAGCUUUUUGCUUGUCUUAUCCUCCUCUGUUAGC [Design #10] (Eterna round: R97, puzzle: Sensor, turn-off variant 1) .
0.0124

Check MS2 coat protein data and give apparent KD of MS2 coat protein for AGCCACAGAGGAUAUACAUACAUCCAGUAGUAGAGAAUACUACAUGAGGAUCACCCAUGUAGAAGGCUGUGGCA [Omei Ex2 BD B14] (Eterna round: R97, puzzle: Exclusion 2) .
0.316

Check MS2 coat protein data and give apparent KD of MS2 coat protein for UAGAUGGGAGGAUAUGCGUAGAUGCAGGUUCGUGUGGUGCUACAUGAGGAUCACCCAUGUAGAAGGCCCGUCUU [Mod 7 R3 JL-ex2-2.29 - Jieux - Exclusion 2] (Eterna round: R97, puzzle: Exclusion 2) .
0.0207

----------
Attribute: apparent KD of MS2 coat protein
tested on: MS2 coat protein; test: apparent KD of MS2 coat protein, switch ON state; designed switch direction (-1 OFF switch, 1 ON switch): -1; higher = weaker reporter binding; settings: FMN input: 0 or 200 uM; Eterna round: R93 (includes R88 designs)
The reply should contain only the number, in µM.

These solved cases illustrate the format of a correct answer.
>>> observed_result("AAGAAAGCAGGAUAUACAAGAAAGAAAGAAAAGAAAAGAAAACAUGAGGAUCACCCAUGUAGAAGGGCUUAGAA [EteRNA is fun!]")
0.0279
>>> observed_result("AAAAAGGGAGGAUAUACAUGAGGAUCACCCAUGUAAAAAAAAAAAGGAGGGAGGGAAGGUAGAAGGCCCAAAAA [Excls3-IIi]")
0.0177

State its apparent KD of MS2 coat protein: AACUGACAUGAGGAUCACCCAUGUCAGGAUAUGACUUGAAAAAUAAAAUAAAAACAUGUCAGAAGGGACAUGGG [Design 54 :P Sub-opt H]
0.0202

State its apparent KD of MS2 coat protein: AAAAGGUGAGGAUAUACGAAAAAAAAAAAAAAAAAAAAAAAGUAGAAGGCACAUGAGGAUCACCCAUGUAAAAA [LROPPY Exclusion 4 - v01_deltaG=2.54]
0.0313

State its apparent KD of MS2 coat protein: CUCUAGUCAGGAUAUGGAAGAAAAGAAGAGAAAGAAAAGAACCAGAAGGGACAUGAGGAUCACCCAUGUAAGAA [EteRNA is fun!]
0.0782

State its apparent KD of MS2 coat protein: AAAAAACAUGAGGAUCACCCAUGUGAGGAUAUCGCUAGUCAGUCCCUAGAGUGAGUGAUGAGAAGGCACAUAAA [Brourd 613 Mod 7 - Jieux - Exclusion 1]
0.0409

----------
Attribute: apparent KD of MS2 coat protein
test system: MS2 coat protein; assay: apparent KD of MS2 coat protein; designed switch direction (-1 OFF switch, 1 ON switch): 1; higher = weaker reporter binding; details: input ligand: FMN 200 uM
The reply should contain only the number, in nM.

>>> observed_result("ACAUGAGACCUAGGAUAUCUUGUACCUACAUGUGACAUGAGGAUCACCCAUGUGGUAAGUAUGAGAGAGAAGGAGGAGAUAUGU [Equivalance 54 - Jieux - Same State NG 2] (Eterna round: R96, puzzle: Same State NG 2)")
15.4
>>> observed_result("UCGGGCGUACUUGCUGACAUGAGGAUCACCCAUGUCCUUGCGCAGGAUAUGGUUCCGUUUCGGUUCCAGAAGGUCCUGGCUGCU [salish99_SSNG3_r04_319] (Eterna round: R96, puzzle: Same State NG 3)")
30.5
>>> observed_result("GCUCGACGUAUUGUCUACAUGAGGAUCACCCAUGUAGGUGCGGAGGAUAUUUACGUGUCUCAUGUAGAGAAGGUCGUGUCGAGC [SameState NG3 #95] (Eterna round: R96, puzzle: Same State NG 3)")
912

State its apparent KD of MS2 coat protein: GAGCCAGUCCGAGGAUAUUCGUAUUAACACAUGAGGAUCACCCAUGUGGGCUCAGAAGAGCCCUGGGAGAAGGCGGGCUGGCUC [SS-NG2-LRO17] (Eterna round: R96, puzzle: Same State NG 2)
11.8

----------
system: MS2 coat protein; assay: apparent KD of MS2 coat protein; higher = weaker reporter binding; settings: Eterna round: R107; input ligand: theophylline 2 mM
RECORDED_ENDPOINT: apparent KD of MS2 coat protein (nM)
The reply should contain only the number, in nM.

Check MS2 coat protein data and give apparent KD of MS2 coat protein for UUAGUAACGACGGCCGCCACUGAAUUUGAACAUGAGGAUCACCCAUGUAGAGAUCCUAGAAUAAACAGGACCGGGUCUGAUAAUG [Exclusion Tryptophane B GF3] .
120

Check MS2 coat protein data and give apparent KD of MS2 coat protein for AGAUGUAGCGGAAGGAGCGUCAUGAGGAUCACCCAUGGCUCCCGUUGUGGGAGUUCCUUAGGUCAGGUAGGUCGCCGUUACGUCA [Omei Arg B SS B v6] .
254

Check MS2 coat protein data and give apparent KD of MS2 coat protein for GGUUGGUGUAGAGAUAUAUUGAUUACUGAAGGAGCGGGAACAAACCCAGGUAGGUCGCAGAGAUCCACAUGAGGAUCACCCAUGU [!0.N] .
39.3

Check MS2 coat protein data and give apparent KD of MS2 coat protein for ACGUCAUGGAGAACGUGACGACUUGUCGAUACCAGUGUUUGAUAGCGCCCUUGGCAGCGAACAUGAGGAUCACCCAUGUCAAGGG [#11 SameState-TheophyllineA] .
88.9

Check MS2 coat protein data and give apparent KD of MS2 coat protein for CAGUCAGUCAGUCAAUGAGUGAGGCAUGAAGGAGCGUGGGAAACCACAGGUAGGUCGCAUGCGAAACAUGAGGAUCACCCAUGUU [SSArg A #3] .
51.9

Check MS2 coat protein data and give apparent KD of MS2 coat protein for CUUGGCUGUGCGGCCGCCACUGACUCAUCCUGCAUUACAUGAGGAUCACCCAUGUUGCGGCCUCCCAGGACCGGGCAUAGCCUGC [Veered] .
673

Check MS2 coat protein data and give apparent KD of MS2 coat protein for AAUAAACAUGAGGAUCACCCAUGUUGUUGACGAGGACCGGUACGGCCGCCACUCGACAUGAGGAUCACCCAUGUUGUCACAUGAG [Same State Tryptophan A] .
256

Check MS2 coat protein data and give apparent KD of MS2 coat protein for UUGGGUUUGUGAAGGAGCGGGUAUGUUUUCUAGUGGAUCCUAACAUGAGGAUCACCCAUGUCCCAGGUAGGUCGCGCGGGUUUGG [12.U] .
99.8

Check MS2 coat protein data and give apparent KD of MS2 coat protein for GUAAUUAUAAGAAGGAGCGUCGAAAAUGGGUAAACAUGAGGAUCACCCAUGUAAAGGGAACGACAGGUAGGUCGCUUAUGGUUAC [AstromonsSSArgB#24] .
305

Check MS2 coat protein data and give apparent KD of MS2 coat protein for UGACAUUGCUCAGAUACCAGACAGGAGGAUCACUCCUGUGCCAACAAGUACAAAAUAAAUGUCCCUUGGCAGCUGAGCAAUGUCU [TheoBX 25 #MS2Left #AlternativeMS2 #Theo22] .
459

Check MS2 coat protein data and give apparent KD of MS2 coat protein for GCUACAUGAGGAUCACCCAUGUCAGCUACACGAGGACCGGUACGGCCGCCACUCGGUAGCGCUCAUCCUCGUGUGUAAGUCAAGU [Xedier] .
97.5

Check MS2 coat protein data and give apparent KD of MS2 coat protein for UAGAGCCAGUCGGCCGCCACUCUCCAUAUGUGAGCCUUUAAGUUCUACAUGAGGAUCACCCAUGUGAGGACCGGGACCGAAUCUA [theeternabot_exclusion_MS2_Trp_B_18] .
93.8

Check MS2 coat protein data and give apparent KD of MS2 coat protein for GGUCUCGAGGGCGAUACCAGCUUGAUCGUACUGGCCUGGUACAUGAGGAUCACCCAUGUAAGCCCUUGGCAGCGCGCUCGAGACC [#1 Exclusion - Theophylline B Attempt #6 (HarryS)] .
29.3

Check MS2 coat protein data and give apparent KD of MS2 coat protein for CGCGCGACAUGAGGAUCACCCAUGUUCCCUCGAGGACCGGUACGGCCGCCACUCGAGGACAUGAGCAUCAGCCAUGUACCGGUCA [Default title] .
66.2

Check MS2 coat protein data and give apparent KD of MS2 coat protein for UGUAUGGACUGAAGGAGCGCCUCAAAAUAGCAUGAGGAUCACCCAUGCAAGGCGAAAGCCGGGCAGGUAGGUCGCAGUCCAUACU [ArgBX 3] .
14.5

Check MS2 coat protein data and give apparent KD of MS2 coat protein for AAUCGUAAGGCGGCCGCCACUACACAUGAGGAUCACCCAUGUCUCGCAGGCUUGCGUUGGGAUAGUAGGACCGGGCCAGUAAUAA [Exclusion - Tryptophan B (Freestyle 14)] .
26.6
